This collection of values is drawn from patent US11076595B2.

test system: Echinochloa crus-galli; assay: Test Example 11: herbicidal effect test by soil treatment in paddy field; type: in vivo; conditions: 120 g/10a active ingredient, 14 days after treatment
REPORTED_METRIC: Weed suppression rate (%) Echinochloa crus-galli
A number alone suffices; assume %.

Q) Any idea what its Weed suppression rate (%) Echinochloa crus-galli is? The molecule is CC(C)N(C(=O)n1cnn(S(=O)(=O)c2ccccc2Cl)c1=O)c1ccc(Cl)cn1 [Compound 11-536]
A) 90

Q) Also check CC(C)N(C(=O)n1cnn(S(=O)(=O)c2c(F)c(F)c(F)c(F)c2F)c1=O)c1ccc(F)cc1Cl [Compound 11-818]
A) 100

Q) Also check CN(C(=O)n1cnn(S(=O)(=O)c2ccc(F)cc2)c1=O)c1ccc(F)cc1F [Compound 11-1137]
A) 100

Q) Also check CC(C)N(C(=O)n1cnn(S(=O)(=O)c2ccccc2F)c1=O)c1ccc(F)c(F)c1F [Compound 11-405]
A) 100

Q) Also check Cc1cc(C)c(S(=O)(=O)n2ncn(C(=O)N(c3ccccc3F)C(C)C)c2=O)c(C)c1 [Compound 11-853]
A) 100

Q) Also check CC(C)N(C(=O)n1cnn(S(=O)(=O)C2CCCCC2)c1=O)c1ccc(F)cc1F [Compound 11-294]
A) 100

Q) Also check Cc1cc(C)c(S(=O)(=O)n2ncn(C(=O)N(c3ccccc3)C(C)C)c2=O)c(C)c1 [Compound 11-852]
A) 100

Q) Also check CN(C(=O)n1cnn(S(=O)(=O)C2CC2)c1=O)c1ccc(F)cc1F [Compound 11-140]
A) 90

Q) Also check Cc1cc(C)c(S(=O)(=O)n2ncn(C(=O)N(C)c3ccc(F)cc3F)c2=O)c(C)c1 [Compound 11-1140]
A) 100

Q) Also check CC(C)N(C(=O)n1cnn(S(=O)(=O)C2CCCCC2)c1=O)c1ccc(F)cc1Cl [Compound 11-301]
A) 90

Q) Also check Cc1ccc(S(=O)(=O)n2ncn(C(=O)N(c3ccc(Cl)cn3)C(C)C)c2=O)cc1 [Compound 11-661]
A) 100

Q) Also check CC(C)N(C(=O)n1cnn(S(C)(=O)=O)c1=O)c1ccc(Cl)cn1 [Compound 11-38]
A) 100

Q) Also check CC(C)N(C(=O)n1cnn(S(=O)(=O)c2ccc(C(C)(C)C)cc2)c1=O)c1c(F)c(F)cc(F)c1F [Compound 11-687]
A) 80

Q) Also check CC(C)N(C(=O)n1cnn(S(=O)(=O)c2ccc(C(C)(C)C)cc2)c1=O)c1ccc(F)cc1F [Compound 11-682]
A) 100

Q) Also check CC(C)N(C(=O)n1cnn(S(=O)(=O)c2ccc(Cl)cc2)c1=O)c1ccccc1 [Compound 11-577]
A) 40

Q) Also check CCS(=O)(=O)n1ncn(C(=O)N(C)c2ccc(F)cc2F)c1=O [Compound 11-1126]
A) 100
